Just for reference, ChEMBL document CHEMBL1201862 is where these values come from.

Tested on: OVCAR-8
Assay: NCI tumour cell line growth inhibition, 48 h
Calls of active or inactive are those of the source. Rule as the data show it: active = GI50 up to about 1.1 µM and inactive = higher.
Give one outcome, nothing more. List: 1 (yes) (active), 0 (no) (inactive)

Name the outcome recorded for COC(=O)c1c(OC(C)=O)ccc2c1c1c(OC(C)=O)c3ccccc3c(OC(C)=O)c1n2C in the assay.
0 (no)

Name the outcome recorded for CC(=O)O[C@H]1C(=O)[C@@]2(C)[C@H]([C@H](OC(=O)c3ccccc3)[C@]3(O)C[C@H](OC(=O)[C@H](OC(=O)OCCC(O)CO)[C@@H](NC(=O)c4ccccc4)c4ccccc4)C(C)=C1C3(C)C)[C@]1(OC(C)=O)CO[C@@H]1C[C@@H]2O (some centres undefined) in the assay.
1 (yes)

Name the outcome recorded for COC(=O)c1ccc([N+](=O)[O-])c(O)c1 in the assay.
0 (no)

Name the outcome recorded for Cc1coc2c1C(=O)C(=O)c1c-2ccc2c1CCCC2(C)C in the assay.
0 (no)

Name the outcome recorded for CC(=O)OC12c3ccccc3C(c3ccccc31)C1C(=O)N(c3ccccc3O)C(=O)C12 (centres undefined) in the assay.
0 (no)

Name the outcome recorded for CCCCCC(=O)OCC1(CO)C/C(=C/CC(C(C)C)C(C)C)C(=O)O1 (centres undefined) in the assay.
0 (no)

Name the outcome recorded for Cc1ccc(C(=O)NN=C(/N=N/c2cccc(C)c2)c2ccc(N(C)C)cc2)cc1 in the assay.
0 (no)

Name the outcome recorded for O=C1Nc2ccc([N+](=O)[O-])cc2/C1=N/Nc1ccc([N+](=O)[O-])cc1 in the assay.
0 (no)

Name the outcome recorded for N#CCCCCC12C3C(=O)N(c4ccccc4)C(=O)C3ON1O[C@@H]1C(=O)N(c3ccccc3)C(=O)[C@@H]12 (some centres undefined) in the assay.
0 (no)

---

Test system: K562
Assay: NCI tumour cell line growth inhibition, 48 h
Activity calls are given as the source filed them. Rule as the data show it: active = GI50 up to about 1.1 µM and inactive = higher.
Measure: GI50

# input compound: N#Cc1cc(-c2nc3cc(F)ccc3s2)ccc1N ; wanted: its GI50
> 100 µM (inactive)

# input compound: CC(CC(=O)O)(CC(=O)O)c1ccccc1 ; wanted: its GI50
50.2 µM (inactive)

# input compound: O=C(NO)c1ccc([N+](=O)[O-])cc1 ; wanted: its GI50
31 µM (inactive)

# input compound: N#Cc1ccc(C2SCc3nc4ccccc4n32)cc1 (stereo unspecified) ; wanted: its GI50
41.6 µM (inactive)

# input compound: CCOC(=O)[C@@H]1OC(c2ccccc2)O[C@H]1C(=O)OCC ; wanted: its GI50
> 100 µM (inactive)

# input compound: Cc1cc2oc(=O)c(Cl)c(Cl)c2c(C)c1Cl ; wanted: its GI50
1.95 µM (inactive)

# input compound: N#CCCCCC12C3C(=O)N(c4ccccc4)C(=O)C3ON1O[C@@H]1C(=O)N(c3ccccc3)C(=O)[C@@H]12 (stereo partly specified) ; wanted: its GI50
> 100 µM (inactive)

# input compound: Cc1nc2ccccc2c(=O)n1/N=C(\N=N\c1ccccc1)c1ccccc1Cl ; wanted: its GI50
30.6 µM (inactive)

# input compound: CC(=O)OCCOCNC(=S)N/N=C(\C)c1cccs1 ; wanted: its GI50
> 100 µM (inactive)

# input compound: CC(=O)OC1(C)C=CC(=O)C=C1 ; wanted: its GI50
50.8 µM (inactive)

# input compound: CC(C)CC(N)C(=O)NC(CNC(CCC(N)=O)C(=O)NC(CC(C)C)C(=O)NC(CC(C)C)C(=O)O)Cc1ccc2ccccc2c1 (stereo unspecified) ; wanted: its GI50
> 10 µM (inactive)

---

Can you tell me GI50 for the items I'm about to list?
Test system: SNB-19
Experiment: NCI tumour cell line growth inhibition, 48 h
The source made the active and inactive calls. No stated cut-off is given here; in the data, active = GI50 up to about 1.1 µM and inactive = higher.

# input molecule: O=C1C2CCCCC2C(=O)N1n1c(Cc2ccccc2)n[nH]c1=O (stereo not given) ; wanted: its GI50
> 100 µM (inactive)

# input molecule: CC(NNC(=O)CC(=O)N(C(=O)c1ccccc1)c1ccc(Cl)cc1)c1cc2ccccc2oc1=O (stereo not given) ; wanted: its GI50
> 10 µM (inactive)

# input molecule: O=C(NNC(=O)c1ccccc1O)c1cccc(Br)c1 ; wanted: its GI50
73.6 µM (inactive)

# input molecule: O=C(c1ccco1)N1CCN(C(=O)c2ccco2)C1=S ; wanted: its GI50
24.4 µM (inactive)

# input molecule: N=C(N)c1ccc(/N=N\c2c(O)ccc3cc4c(/N=N\c5ccc(C(=N)N)cc5)c(O)ccc4cc23)cc1 ; wanted: its GI50
> 100 µM (inactive)

# input molecule: O=C1C(C(c2ccccc2)N2CCOCC2)=C(O)C(c2ccccc2)N1c1ccccc1 (stereo not given) ; wanted: its GI50
> 10 µM (inactive)

# input molecule: CCC1OC2C(CC=C(C)C)=C3OC(C)(O)C(C)(CC)C(OC(C)=O)C3=C3OC(=O)C=C1C32 (stereo not given) ; wanted: its GI50
28.1 µM (inactive)

# input molecule: COc1c2c(c3c(c1OC)c(=O)c1ccccc1n3C)OCO2 ; wanted: its GI50
> 100 µM (inactive)

# input molecule: C[C@]12CCC(=O)C=C1CC[C@@H]1C2CC[C@]2(C)c3nn(-c4ccccc4)nc3CC12 (stereo not given in full) ; wanted: its GI50
> 100 µM (inactive)

# input molecule: N#Cc1nc(C(=O)c2ccccc2)oc1N ; wanted: its GI50
> 100 µM (inactive)

# input molecule: CC(C)(C)OC(=O)N1C(OP(=O)(Oc2ccccc2)Oc2ccccc2)=CSc2ccccc21 ; wanted: its GI50
43.2 µM (inactive)

# input molecule: Cc1ccc(/C=C2\NC(=S)N(CN3CCCCC3)C2=O)cc1 ; wanted: its GI50
55.5 µM (inactive)

# input molecule: COc1ccccc1-n1c(NN)nc2ccc(Br)cc2c1=O ; wanted: its GI50
37 µM (inactive)

# input molecule: Cc1ccc(S(=O)(=O)n2c3c(c4ccccc42)CCN2C[C@H]([C@H](C)Br)CC[C@@H]32)cc1 ; wanted: its GI50
> 100 µM (inactive)

# input molecule: O=S(=O)(N/C(=N\O)Nc1ccc(Cl)cc1)c1cc(C(F)(F)F)cc(C(F)(F)F)c1 ; wanted: its GI50
17.1 µM (inactive)

# input molecule: C[C@]12CCc3nonc3C1CC[C@@H]1C2CC[C@]2(C)C(=O)/C(=N\O)CC12 (stereo not given in full) ; wanted: its GI50
> 100 µM (inactive)

# input molecule: CS(=O)(=O)O[C@H]1CN2C[C@@H](O)[C@@H](O)[C@H]2[C@H]1CO.[B] ; wanted: its GI50
> 100 µM (inactive)

# input molecule: CC(=O)OCC1OC(n2c(S)nc(-c3ccccc3)c(C#N)c2=O)C(OC(C)=O)C(OC(C)=O)C1OC(C)=O (stereo not given) ; wanted: its GI50
> 100 µM (inactive)

# input molecule: CN(C)Cc1[nH]c2ccccc2c1C(=O)c1ccccc1 ; wanted: its GI50
> 100 µM (inactive)

# input molecule: CN(C)C(C1=C(O)C(c2ccccc2)N(c2ccccc2)C1=O)N1CCOCC1 (stereo not given) ; wanted: its GI50
> 10 µM (inactive)

---

Tested on: U-251
Test: NCI tumour cell line growth inhibition, 48 h
Calls of active or inactive are those of the source. Cut-off read from the data, not from the text of the source: active = GI50 up to about 1.1 µM and inactive = higher.
Measure: GI50

Can you look up GI50 on U-251 for Cc1c(Cl)c(=O)oc2cc(OCC(=O)c3ccccc3)ccc12 ?
33.2 µM (inactive)

Can you look up GI50 on U-251 for CC(C)(C)C1=C(Br)C(Br)(C(C)(C)C)OP1(=O)c1ccccc1 (stereo unspecified) ?
> 100 µM (inactive)

Can you look up GI50 on U-251 for CCC(C)c1cnc(CC(C)C)c(=O)[nH]1 (stereo unspecified) ?
> 100 µM (inactive)

Can you look up GI50 on U-251 for COc1ccc(C2C3=C(COC3=O)Oc3cc4c(cc32)OCO4)c(OC)c1 (stereo unspecified) ?
19.3 µM (inactive)

Can you look up GI50 on U-251 for CC(=O)OCCOCNC(=S)N/N=C(\C)c1cccs1 ?
> 100 µM (inactive)

Can you look up GI50 on U-251 for Cc1cccc(NC(=O)/C(=N\NC(C)(C)C)C2NC(=S)NC2=O)c1C (stereo unspecified) ?
> 100 µM (inactive)

---

Can you tell me GI50 for the items I'm about to list?
Tested on: NCI-H522
Assay: NCI tumour cell line growth inhibition, 48 h
Calls of active or inactive are those of the source. Cut-off read from the data, not from the text of the source: active = GI50 up to about 1.1 µM and inactive = higher.

# input compound: N#Cc1c(-c2ccccc2)c(C#N)c(=S)n(C2OCC(O)C(O)C2O)c1N (stereo unspecified) ; wanted: its GI50
> 100 µM (inactive)

# input compound: COc1cc(-c2cc(CCC(=O)Nc3ccccc3[N+](=O)[O-])n(-c3ccc([N+](=O)[O-])cc3[N+](=O)[O-])n2)ccc1O ; wanted: its GI50
> 10 µM (inactive)

# input compound: CN1C(=O)C23CCCCC2CC1(c1ccccc1)S3 (stereo unspecified) ; wanted: its GI50
76.2 µM (inactive)

# input compound: O/N=C1\CSc2ccccc2C1 ; wanted: its GI50
> 100 µM (inactive)

# input compound: CCC(=O)OCN1C(=O)C=CC1=O ; wanted: its GI50
1.91 µM (inactive)

# input compound: Nc1ncnc2c(C3OC(CO)C(O)C3O)c[nH]c12 (stereo unspecified) ; wanted: its GI50
0.00614 µM (active)

# input compound: CCOC(=O)/C(C(C)=O)=C(\OC(C)=O)c1ccncc1C(=O)O ; wanted: its GI50
> 100 µM (inactive)

# input compound: O=C1C(/C=N/CCc2c[nH]c3ccccc23)C(C(F)(F)F)=NN1c1nc2ccccc2s1 (stereo unspecified) ; wanted: its GI50
19.5 µM (inactive)

# input compound: CC1=C(O)C(=O)C2C(=O)C1C(C)C2c1ccccc1 (stereo unspecified) ; wanted: its GI50
> 100 µM (inactive)

# input compound: N=c1oc2ccc(Cl)cc2cc1C(=O)NCc1ccccc1 ; wanted: its GI50
24.7 µM (inactive)

# input compound: Clc1ccc(SC(/C=C/NNC2=NN=C(c3ccccc3)C(c3ccccc3)N2)c2ccccc2)cc1 (stereo unspecified) ; wanted: its GI50
17.9 µM (inactive)
